# procedure text: Acute toxicity study (up-and-down method)
# Parameters: species or system mice of ddY strain
# measurement conditions: mouse, in vivo, ip, intraperitoneal, male ddY mice, 25 g
quantity kind: LD50

compound	LD50
COc1cc2oc3c(c(=O)c2cc1OC)C(=O)c1c(ccc2cc4c(c(OC(C)=O)c12)C(=O)N1CCOC1(C)C4)C3=O (stereo not shown)	≥ 40 mg/kg
COc1cc2oc3c(c(=O)c2cc1OC(C)=O)C(=O)c1c(ccc2cc4c(c(OC(C)=O)c12)C(=O)N1CCOC1(C)C4)C3=O (stereo not shown)	≥ 40 mg/kg
COc1cc2oc3c(c(=O)c2cc1OC)C(=O)c1c(ccc2cc4c(c(O)c12)C(=O)N1CCOC1(C)C4)C3=O (stereo not shown)	≥ 40 mg/kg

# ---- query compound ----
Query block: LD50 for COc1cc2oc3c(c(=O)c2cc1O)C(=O)c1c(ccc2cc4c(c(O)c12)C(=O)N1CCOC1(C)C4)C3=O (stereo not shown) ?
Result block: ≥ 40 mg/kg
